- target: human α2β3γ2 receptors (Homo sapiens (Human), UniProt P18507+P47869)
- assay.summary: 3H-flunitrazepam competition binding, human α2β3γ2 GABAA receptor
- measurement.parameters: HEK293 cell membranes, 1 nM 3H-flunitrazepam; read-out: Ki α2
- Description: The affinity of the compound to each subtype of GABAA receptor was determined by competing for the binding of ^3H-flunitrazepam to HEK293 cells stably expressing human α1β3γ2, α2β3γ2, α3β3γ2, and α5β3γ2 receptors. The cells were suspended in 50 mM Tris-HCl buffer (pH=7.4), homogenized 10 times on ice with a homogenizer for 20 seconds, and centrifuged at 1000 g for 10 minutes at 4° C. […] Protein was measured (BCA method, Pierce), and 1 mL aliquots were prepared and stored at −80° C. […]
Each entry below lists one item and its recorded pKi value.
Formally, pKi is defined as -log10 of the concentration c, with c in mol/L.

Before answering, review these 5 worked examples.
# compound, meas.value
rows = [
    ("Cc1nnn(-c2ccc(C(F)F)cc2)c1COc1ccc(N2C[C@H]3C[C@@H]2C(=O)N3)nn1", 7.30),
    ("Cc1nnn(-c2ccc(C(F)F)cc2)c1COc1ccc(N2CCN(CCN3CCCC3)C(=O)C2)nn1", 7.58),
    ("Cc1nnn(-c2ccc(C(F)F)cc2)c1COc1ccc(N2CCN3CCN(C4CC4)C(=O)[C@@H]3C2)nn1", 6.93),
    ("Cc1nnn(-c2ccc(C(F)F)cc2)c1COc1ccc(N2CCN3CCNC(=O)[C@@H]3C2)cn1", 6.48),
    ("Cc1nnn(-c2ccc(C(F)F)cc2)c1COc1ccc(N2CC(=O)NC(C)C2)nn1 (stereo not drawn)", 7.80),
]

Attention now turns to another entry.
Input: Form field: reported pKi of Cc1ccc(-n2nnc(C)c2COc2ccc(N3CCN4CCNC(=O)[C@@H]4C3)nn2)cc1
Output: 6.78

----------
Each entry below lists one item and its recorded pKi value.
- target: human α5β3γ2 receptors (α5-GABAA receptor) (Homo sapiens (Human), UniProt P18507+P31644)
- assay.summary: 3H-flunitrazepam competition binding, human α5β3γ2 GABAA receptor
- measurement.parameters: HEK293 cell membranes, 1 nM 3H-flunitrazepam; read-out: α5-GABAAR Ki
- Experimental: The affinity of the compound to each subtype of GABAA receptor was determined by competing for the binding of ^3H-flunitrazepam to HEK293 cells stably expressing human α1β3γ2, α2β3γ2, α3β3γ2, and α5β3γ2 receptors. The cells were suspended in 50 mM Tris-HCl buffer (pH=7.4), homogenized 10 times on ice with a homogenizer for 20 seconds, and centrifuged at 1000 g for 10 minutes at 4° C. […] Protein was measured (BCA method, Pierce), and 1 mL aliquots were prepared and stored at −80° C. […]
Formally, pKi is defined as -log10 of the concentration c, with c in mol/L.

Before answering, review these 3 worked examples.
# smiles.input, target, pKi
records = [
    ("Cc1nnn(-c2ccc(C(F)F)cc2)c1COc1ccc(N2CCCC2=O)nn1", "human α5β3γ2 receptors (α5-GABAA receptor) (Homo sapiens (Human), UniProt P18507+P31644)", 8.71),
    ("Cc1nnn(-c2ccc(C(F)F)cc2)c1COc1ccc(N2CCN3CCNC(=O)[C@@H]3C2)nn1", "human α5β3γ2 receptors (α5-GABAA receptor) (Homo sapiens (Human), UniProt P18507+P31644)", 8.59),
    ("Cc1nnn(-c2ccc(C(F)F)cc2)c1COc1ccc(N2CCCC3(COC3)C2)nn1", "human α5β3γ2 receptors (α5-GABAA receptor) (Homo sapiens (Human), UniProt P18507+P31644)", 8.65),
]

Input: Test system human α5β3γ2 receptors (α5-GABAA receptor) (Homo sapiens (Human), UniProt P18507+P31644); read-out pKi; what value for Cc1nnn(-c2ccc(C(F)F)cc2)c1COc1ccc(N2CCN[C@H](C(=O)O)C2)nn1 ?
Output: 8.44

Input: Could you do the same for Cc1nnn(-c2ccc(C(F)F)cc2)c1COc1ccc(N2CC(C(=O)Nc3cnn(C(F)F)c3)C2)nn1 , please?
Output: 8.72

From: patent US20250136581A1
